test summary: yeast display, Sf9 membrane polyspecificity reagent, FACS + sequencing; frameworks hold sequencing errors
readout type: polyreactivity (PSR sort gate)

Consider the reported polyreactivity (PSR sort gate) for these sequences:
record sequence	test result
QVQLVESGGGLVQAGGSLRLSCAASGSIFGIYAMGWYRQAPGKERELVAAISRGGSTYYADSVKGRFTISRDNAKNTVYLQMNSLKPEDTAVYYCNAKLIVTPGRGDYWGQGTQVTVSS	high polyreactivity
QVQLVESGGGLVQAGGSLRLSCAASGRTFRSDNAMGWYRQAPGKERELVAAISQGGGTYYADSVKGRFTISRDNAKNTVYLQMNSLKPEDTAVYYCARDAYYADPSLWYYTYDYWGQGTQVNVSS	low polyreactivity
QVQLVESGGGLVQAGGSLRLSCAASGSTFLINAMGWYRQAPRKERELVATISSGGSTYYADSVKGRFTISRDNAKNTVYLQMNSLKPEDTAVYSCAADPDRTAYDYWGQGTQVTVSS	low polyreactivity
QVQLVESGGGLVQAGGSLRLSCAASGLTFLFYAMGWYRQAPGKERELVASIRWSDGRTYYADSVKGRFTISRDNAKNTVYLQMNSLKPEDTAVYYCAVVPAYVYLNREYYWGQGTQVTVSS	high polyreactivity

Batch request: polyreactivity (PSR sort gate) per item, same order as input.
1. QVQLVESGGGLVQAGGSLRLSCAASGFTLLTYVMGWYRQAPGKERELVAAISKSGSRTYYADSVKGRFTISRDNAKNTVYVQMNSLKPEDTPVYYCAADTSAYRYDYWGQGTQVTVSS
2. QEQLVESGGGLVQAGGSLRLSCAASGSILRYYAMRWYRQPPGKEREFVAAISWSGTSTYYADSVKGRFTISRDIAKNTVYLQLNSLKPEDTSVYYCAARTYYVPYYYCGQGTQVTVSS

1. high polyreactivity
2. high polyreactivity

I would be grateful if you could provide polyreactivity (PSR sort gate) for each of the following entries.
1. QVQLVDSGGGLVQAGGSLRLSCAASGRIFRYYAMGWYRQAPGKERELVAGINQSGGSTYYADSVKGRFTISRDNAKNTVYLQMNSLKPEDTAVYYCAAKVSWPKYDYWGQGTQVTVSS
2. QVQLVESGGGLVQAGGSLRLSCGASGRIFATNAMGWYRQAPGKERELVATITRSAGRTYYADSVKGRFTISRDNAKNTVYLQMNSLIPEDTAVYYCAASYLDSEPGYREYDYWGQGTQVTVSS
3. QVQLVESGGGLVQAGGSLRLSCAASGSIFSNYAMGWYRQAPGKERELVAAITLSSGGTYYADSVKGRFTISRDNAKNTVYLQMNSLKPEDTAVYYCAAQYKYFIHRYYYWGQGTQVTVSS
4. QVQLVESGGGLVQAGGSLRLSCAASGRTFQEYAMGWYRQAPGKERELVADISDGGSTNYADSVKGRFTISRDNAKNTVYLQMYRLKPEDTAVYYCAADQYHGVGINFRSDYDYWGQGTQVTVSS
5. QVHLVESGGGLVQAGGSLRLSCAASGRIFGYNAMGWYRQAPGKERELVAAITGSRGSTYYADSVKGRFTFSRDTAKNTVYLQLNSLKPEDTAVYYCNAPGNHWGDWGHGTQVTVSS

1: low polyreactivity; 2: low polyreactivity; 3: high polyreactivity; 4: low polyreactivity; 5: low polyreactivity
